system: Hs746T; assay: Cell viability drug screen, 12-point dose-response AUC; format: cell-based, human; conditions: Hs746T cells; 72 hours; 12-point dose-response
Structures can show the parent of a compound that is named as a salt.
Reported endpoint: area under the viability curve (AUC), normalized
Hey, just send me the number, nothing else.

Illustrative cases are given below, each with its answer.
# Molecule, Result value
records = [
    ("CC(/C=C/C(=O)NO)=C\\[C@@H](C)C(=O)c1ccc(N(C)C)cc1", 0.6621),
    ("C[C@@H]1O[C@@H](O[C@H]2C[C@@H](O)[C@]3(CO)[C@H]4[C@H](O)C[C@]5(C)[C@@H](C6=CC(=O)OC6)CC[C@]5(O)[C@@H]4CC[C@]3(O)C2)[C@H](O)[C@H](O)[C@H]1O", 0.3093),
    ("CC(C)C[C@H](NC(=O)CNC(=O)c1cc(Cl)ccc1Cl)B(O)O", "−1.189"),
]

Exam item: Give reported area under the viability curve (AUC), normalized value for CCCCc1nc2cc(/C=C/C(=O)NO)ccc2n1CCN(CC)CC
Marked response: 0.7098

Exam item: Give reported area under the viability curve (AUC), normalized value for O=C1c2c(O)ccc(O)c2C(=O)c2c(NCCNCCO)ccc(NCCNCCO)c21 [Mitoxantrone Hydrochloride]
Marked response: 0.5925

Exam item: Give reported area under the viability curve (AUC), normalized value for Nc1ccc(-c2ccc3ncc4ccc(=O)n(-c5cccc(C(F)(F)F)c5)c4c3c2)cn1
Marked response: −0.7581

Exam item: Give reported area under the viability curve (AUC), normalized value for COc1ncc(-c2ccc3nccc(-c4ccnnc4)c3c2)cc1NS(=O)(=O)c1ccc(F)cc1F
Marked response: −0.063

---

# Average Area Under the Viability Curve (AUC), AUC norm value listing for each entry below
tested on: MKN28; test: Cell viability drug screen, 12-point dose-response AUC; assay type: cell-based, human; conditions: MKN28 cells; 72 hours
Structures can show the parent of a compound that is named as a salt.
Hey, just send me the number, nothing else.

# Compound, Result value
measured = [
    ("COC(=O)Nc1nc2ccc(C(=O)c3cccs3)cc2[nH]1", "−0.1478"),
    ("CCC[C@H](NC(=O)/C(C#N)=C/c1cccc(Br)n1)c1ccccc1", "−0.04006"),
    ("Cc1ccc([N+](=O)[O-])cc1S(=O)(=O)N(C)/N=C/c1cnc2ccc(Br)cn12", 0.05865),
    ("CO[C@H]1C(=O)[C@]2(C)[C@@H](OC)C[C@H]3OC[C@@]3(OC(C)=O)[C@H]2[C@H](OC(=O)c2ccccc2)[C@]2(O)C[C@H](OC(=O)[C@H](O)[C@@H](NC(=O)OC(C)(C)C)c3ccccc3)C(C)=C1C2(C)C", "−2.213"),
    ("CC[C@]1(O)C[C@@H]2CN(CCc3c([nH]c4ccccc34)[C@@](C(=O)OC)(c3cc4c(cc3OC)N(C)[C@H]3[C@@](O)(C(=O)OC)[C@H](OC(C)=O)[C@]5(CC)C=CCN6CC[C@]43[C@@H]65)C2)C1", "−0.818"),
    ("Cn1c(=O)n(-c2ccc(C(C)(C)C#N)cc2)c2c3cc(-c4cnc5ccccc5c4)ccc3ncc21", 2.007),
    ("CO[C@@H](C(=O)N1Cc2n[nH]c(NC(=O)c3ccc(N4CCN(C)CC4)cc3)c2C1)c1ccccc1", 1.245),
    ("CC[C@@]1(O)C(=O)OCc2c1cc1n(c2=O)Cc2cc3c(CN(C)C)c(O)ccc3nc2-1 [Topotecan HCI, Topotecan HCl]", 1.259),
]

Exam item: Give reported Average Area Under the Viability Curve (AUC), AUC norm value value for CC[C@]1(O)C[C@H]2CN(CCc3c([nH]c4ccccc34)[C@@](C(=O)OC)(c3cc4c(cc3OC)N(C=O)[C@H]3[C@@](O)(C(=O)OC)[C@H](OC(C)=O)[C@]5(CC)C=CCN6CC[C@]43[C@@H]65)C2)C1
Marked response: −0.493

Exam item: Give reported Average Area Under the Viability Curve (AUC), AUC norm value value for CC(C)n1nc(-c2ccc3oc(N)nc3c2)c2c(N)ncnc21
Marked response: 1.195

Exam item: Give reported Average Area Under the Viability Curve (AUC), AUC norm value value for Cn1cc(CNCC2CCN(c3ncc(C(=O)NO)cn3)CC2)c2ccccc21
Marked response: −0.5312

Exam item: Give reported Average Area Under the Viability Curve (AUC), AUC norm value value for OC1(c2ccc(Cl)c(C(F)(F)F)c2)CCN(CCCC(c2ccc(F)cc2)c2ccc(F)cc2)CC1
Marked response: −0.6097

Exam item: Give reported Average Area Under the Viability Curve (AUC), AUC norm value value for CC(C)[C@H](C(=O)Nc1ccc(C(=O)NO)cc1)c1ccccc1
Marked response: 0.07777
